System: K562
Assay Protocol: cell viability relative to vehicle control; higher = less cytotoxic;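 further: after 48 h exposure read by CellTiter-Glo luminescence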
Condition: 10 µM; SRSF2 genotype: SRSF2 wt/wt
Where a name gives a salt, the structure may show the parent alone.
Listed here: items and their measured cell viability.
Numeric only. Scale: %

Worked cases, answers included:
N=C(N)Nc1ccc(C(=O)Oc2ccc3cc(C(=N)N)ccc3c2)cc1 [Nafamostat mesylate] = 89.4
CC[C@H]1OC(=O)[C@H](C)[C@@H](O[C@H]2C[C@@](C)(OC)[C@@H](O)[C@H](C)O2)[C@H](C)[C@@H](O[C@@H]2O[C@H](C)C[C@H](N(C)C)[C@H]2O)[C@](C)(OC)C[C@@H](C)C(=O)[C@H](C)[C@@H](O)[C@]1(C)O = 107
C=C[C@@]1(C)CC(=O)[C@]2(O)[C@@]3(C)[C@@H](O)CCC(C)(C)[C@@H]3[C@H](O)[C@H](OC(C)=O)[C@@]2(C)O1 = 94
O=c1oc2cc(O)ccc2s1 = 105

Let us move to another entry and its cell viability.
Identify measured cell viability corresponding to C=C1CC[C@@H]2[C@](C)(CO)[C@H](O)CC[C@@]2(C)[C@@H]1C/C=C1/C(=O)OC[C@H]1O [Andrographolide]
59.5

###

Listed here: items and their measured cell viability.
Test system: MOLM14
Assay Protocol: cell viability relative to vehicle control; higher = less cytotoxic
Condition: 10 µM; SRSF2 genotype: SRSF2 P95H/wt
Numeric only. Scale: %

Worked cases, answers included:
COc1nccc(-c2c(-c3ccc(F)cc3)ncn2C2CCC(O)CC2)n1 (stereo not given) = 107
CC(=O)c1ccc(O)c(C(=O)O)c1 = 101
Cc1ccc(NC(=O)c2ccc(CN3CCN(C)CC3)cc2)cc1Nc1nccc(-c2cccnc2)n1 [Imatinib (STI571)] = 85
CCCS(=O)(=O)Nc1ccc(F)c(C(=O)c2c[nH]c3ncc(Cl)cc23)c1F = 81.4
Cc1cc(=O)oc2cc(O)ccc12 = 102
O=C(Nc1cccnc1)c1cc(-c2ccnc(F)c2)ccc1OCc1ccccc1 = 104

Identify measured cell viability corresponding to Cc1cc(CS(=O)(=O)c2ccccc2)cc(OCc2ccc(CN3CCC[C@@H]3CO)cc2)c1
96.5

###

System: MOLM14
Assay Protocol: cell viability relative to vehicle control; higher = less cytotoxic
Condition: 10 µM; SRSF2 genotype: SRSF2 P95H/wt
Counter-ions that a name gives are not always drawn.
Test Readout: cell viability (%)
Numeric only. Scale: %

Worked cases, answers included:
CNCc1ccc(-c2[nH]c3cc(F)cc4c3c2CCNC4=O)cc1 = 50
C[C@]12C[C@@H](O)[C@@H]3C[C@@]1(O[C@@H]1O[C@H](CO)[C@@H](O)[C@H](O)[C@H]1O)[C@@]3(COC(=O)c1ccccc1)C(=O)O2 = 104
C=CC[C@@H]1/C=C(\C)C[C@H](C)C[C@H](OC)[C@H]2O[C@@](O)(C(=O)C(=O)N3CCCC[C@H]3C(=O)O[C@H](/C(C)=C/[C@@H]3CC[C@@H](O)[C@H](OC)C3)[C@H](C)[C@@H](O)CC1=O)[C@H](C)C[C@@H]2OC = 92.2

Identify measured cell viability corresponding to CCCCNc1ccc(C(=O)OCCN(C)C)cc1 [Tetracaine hydrochloride (Pontocaine)]
92.2

Identify measured cell viability corresponding to O=C1Nc2ccc(CN3C(=O)CSC3=O)cc2/C1=C/c1cc(CN2CCOCC2)c[nH]1
92

Identify measured cell viability corresponding to CNC(=O)c1cc(Oc2ccc(NC(=O)Nc3ccc(Cl)c(C(F)(F)F)c3)c(F)c2)ccn1
16.6

###

System: K562
Assay Protocol: cell viability relative to vehicle control; higher = less cytotoxic
Condition: 10 µM; SRSF2 genotype: SRSF2 wt/wt
Counter-ions that a name gives are not always drawn.
Listed here: items and their measured cell viability.
Numeric only. Scale: %

Worked cases, answers included:
CC(=O)O[C@@H]1CC[C@@]2(C)[C@@H](CC[C@]3(C)[C@@H]2C(=O)C=C2[C@@H]4[C@@H](C)[C@H](C)CC[C@]4(C)CC[C@]23C)[C@@]1(C)C(=O)O = 83.4
Nc1ccn([C@@H]2O[C@H](CO)[C@@H](O)[C@@H]2O)c(=O)n1 [Cytarabine hydrochloride] = 94.9

Identify measured cell viability corresponding to C[C@@H](c1ccc2nccn2c1)n1nnc2ncc(-c3cnn(C)c3)nc21
104

Identify measured cell viability corresponding to Cc1cccc(CN2CCN(C(c3ccccc3)c3ccc(Cl)cc3)CC2)c1 (stereo unspecified) [Meclizine dihydrochloride]
91.5

###

Listed here: items and their measured cell viability.
Test system: MARIMO
Assay Protocol: cell viability relative to vehicle control; higher = less cytotoxic
Condition: 10 µM; SRSF2 genotype: SRSF2 wt/wt
Numeric only. Scale: %

Worked cases, answers included:
C=C1C2CCC3C2C(C)(C)CCCC13C (single isomer, unassigned; (+)) [(+)-Longifolene] = 107
S=C=Nc1cccc(NC(=S)NCCCCNC(=S)Nc2cccc(N=C=S)c2)c1 = 105
O=C(O)[C@H]1CSC(c2nc3ccc(O)cc3s2)=N1 [D-Luciferin] = 92.8
N[C@H]1CC[C@H](N[C@@H]2C[C@H]2c2ccccc2)CC1 = 88.5
O=C(O)c1cn(C2CC2)c2cc(Cl)c(F)cc2c1=O [Fluoroquinolonic Acid] = 101
O=C(O)CC1CC(c2ccccc2)=NO1 (stereo not given) = 110

Identify measured cell viability corresponding to CC(=O)c1ccc2c(c1)c1cc(C(C)=O)ccc1n2CCNC(C)C
2.54

Identify measured cell viability corresponding to COC(=O)Nc1nc2cc(C(=O)c3cccs3)ccc2[nH]1 [Nocodazole]
8.94

Identify measured cell viability corresponding to C[S+]([O-])c1ccc(-c2nc(-c3ccc(F)cc3)c(-c3ccncc3)[nH]2)cc1 (stereo not given)
113

Identify measured cell viability corresponding to CC(C)(C)c1cnc(CSc2cnc(NC(=O)C3CCNCC3)s2)o1
4.42

Identify measured cell viability corresponding to O=C(Nc1ncc([N+](=O)[O-])s1)c1ccccc1O [Tizoxanide]
94.2

Identify measured cell viability corresponding to CN(C(Cc1ccc(OS(=O)(=O)c2cccc3cnccc23)cc1)C(=O)N1CCN(c2ccccc2)CC1)S(=O)(=O)c1cccc2cnccc12 (stereo not given)
72.7

###

System: OCI-AML2
Assay Protocol: cell viability relative to vehicle control; higher = less cytotoxic
Condition: 10 µM; SRSF2 genotype: wt/wt
Counter-ions that a name gives are not always drawn.
Listed here: items and their measured cell viability.

Worked cases, answers included:
CCc1c(C(=O)NCCc2ccc(N3CCCCC3)cc2)[nH]c2ccc(Cl)cc12 = 107%
CN(C)CCc1c[nH]c2ccc(Cn3cncn3)cc12 [Rizatriptan Benzoate (Maxalt)] = 83.5%
N#C[C@@H]1C[C@@H]2C[C@@H]2N1C(=O)[C@@H](N)C12CC3CC(CC(O)(C3)C1)C2 = 108%
CC(=O)OCC(=O)[C@@]1(O)CC[C@H]2[C@@H]3CCC4=CC(=O)CC[C@]4(C)[C@@]3(F)[C@@H](O)C[C@@]21C [Fludrocortisone acetate] = 119%
C#C[C@]1(O)CC[C@H]2[C@@H]3CCc4cc(OC)ccc4[C@H]3CC[C@@]21C = 82%
Cc1nnsc1C(=O)Nc1ccc(-n2nc(C(F)(F)F)cc2C(F)(F)F)cc1 = 89.2%
O=C(c1cncc(Br)c1)N1CCC(N2CCCC2)CC1 = 120%
O=C(NCCCNc1nc(Nc2cccc(NC(=O)N3CCCC3)c2)ncc1I)c1cccs1 = 20.6%

Let us move to another entry and its cell viability.
Identify measured cell viability corresponding to NCc1c[nH]c(=S)n1[C@H]1CCc2c(F)cc(F)cc2C1 [Nepicastat hydrochloride]
103%

###

System: OCI-AML2
Assay Protocol: cell viability relative to vehicle control; higher = less cytotoxic
Condition: 10 µM; SRSF2 genotype: wt/wt
Structures can show the parent of a compound that is named as a salt.
Listed here: items and their measured cell viability.
Numeric only. Scale: %

Worked cases, answers included:
OC[C@H]1O[C@@](CO)(OC[C@@]2(OC[C@@]3(O[C@H]4O[C@H](CO)[C@@H](O)[C@H](O)[C@H]4O)O[C@H](CO)[C@@H](O)[C@@H]3O)O[C@H](CO)[C@@H](O)[C@@H]2O)[C@@H](O)[C@@H]1O = 102
C=CC(=O)N1CCN(C(=O)CNc2cc(I)c(Cl)cc2O)CC1 [K-Ras(G12C) inhibitor 12] = 88.1
C=CC(=O)Nc1cc(Nc2nccc(-c3c[nH]c4ccccc34)n2)c(OC)cc1N(C)CCN(C)C = 0.67
C[C@H](CS)C(=O)N1CCC[C@H]1C(=O)O = 97.8
CCCCNc1ccc(C(=O)OCCN(C)C)cc1 [Tetracaine hydrochloride (Pontocaine)] = 98.4

Identify measured cell viability corresponding to Cc1cnc(Nc2ccc(N3CCN(C)CC3)cc2)nc1Nc1cccc(S(=O)(=O)NC(C)(C)C)c1
2.96

Identify measured cell viability corresponding to CC1=CCC[C@H](C)C(=O)C[C@@H](C(C)C)C(=O)C1
87.2

Identify measured cell viability corresponding to Cc1nc2cc(F)c(F)cc2n1-c1cncc(Nc2ccc(C(F)(F)F)cc2)n1
9.7

Hey, just so you know, these numbers are from the supplement of paper PMC10981050.
